# System: DU-145
# assay_procedure: NCI tumour cell line growth inhibition, 48 h
Active and inactive are the calls of the source. Rule as the data show it: active = GI50 up to about 1.1 µM and inactive = higher.
property_label: GI50

                                   compound               result
0    Cc1c2cc[n+](C)cc2c(C)c2c1[nH]c1ccccc12     0.52 µM (active)
1  O=c1cc(O)c2ccccc2o1 [4-HYDROXYCOUMARINS]  > 100 µM (inactive)
2       C=CC1(c2ccc3ccccc3c2)OCC(CC)(CC)CO1   45.1 µM (inactive)
3  CSC1(SC)N2Cc3ccccc3N=C2C1(c1ccccc1)c1ccccc1   19.5 µM (inactive)
4  CCOC(=O)c1ccc(Nc2nc3ccccc3nc2C(=O)OCC)cc1  > 100 µM (inactive)
5  Cc1ccc(C(=O)/C=C(\O)C(=O)NN=C(c2ccccc2)c2ccccc2)cc1  > 100 µM (inactive)
6              O=c1ccc2ccc(OP(=O)(O)O)cc2o1   93.1 µM (inactive)
7        OC(c1ccc2c(c1)OCO2)c1ccc2c(c1)OCO2  > 100 µM (inactive)
8              Cc1n2nc(N)sc2n[n+]1Cc1ccccc1  > 100 µM (inactive)
9           CCc1nc2c(n1CC)C(=O)c1ccccc1C2=O   66.5 µM (inactive)

* * *

# Test system: SK-MEL-28
# assay_procedure: NCI tumour cell line growth inhibition, 48 h
Active and inactive are the calls of the source. Cut-off read from the data, not from the text of the source: active = GI50 up to about 1.1 µM and inactive = higher.
Entries annotated with measured GI50
property_label: GI50

In [3]: df
Out[3]:
                                    molecule  property_label               result
 0  CN(c1ccc(C(=O)c2ccc(N(C)S(C)(=O)=O)cc2)cc1)S(C)(=O)=O            GI50   54.6 µM (inactive)
 1  O=C(CCCN1CCC(C(O)c2ccc(F)cc2)CC1)c1ccc(F)cc1 (stereo not drawn)            GI50   59.3 µM (inactive)
 2  O=C1c2ccccc2C(=O)c2c(NC3CCCCC3)ccc(Nc3ccc(S(=O)(=O)O)cc3)c21            GI50  > 100 µM (inactive)
 3      Nn1c(S)nnc1COc1cccc(OCc2nnc(S)n2N)c1            GI50  > 100 µM (inactive)
 4  Cc1ccc(C2(O)c3ccccc3C(=O)N(C)C2(O)c2ccc(C)cc2)cc1 (stereo not drawn)            GI50  > 100 µM (inactive)
 5  COC(=O)/C=C\COCC1C2CCC(=O)C21 (stereo not drawn)            GI50   > 25 µM (inactive)
 6  COC(=O)C(C)(C)[C@@H]1OC(=O)N(S(=O)(=O)c2c(C)cc(C)cc2C)[C@H]1C(C)C            GI50  > 100 µM (inactive)
 7       COc1ccc(P2(=S)OC(C)(C)C(C)(C)O2)cc1            GI50  > 100 µM (inactive)
 8  Cc1ccc(C(=O)/C=C(\O)C(=O)NN=C(c2ccccc2)c2ccccc2)cc1            GI50  > 100 µM (inactive)
 9         CC(C)(C)OC(=O)NCCNC(=O)OCc1ccccc1            GI50  > 100 µM (inactive)
10  CN1C2CCC1C(C(O)c1ccccc1[N+](=O)[O-])C(=O)C2 (stereo not drawn)            GI50  > 100 µM (inactive)
11     N=C(N)NCC(N)C(=O)O (stereo not drawn)            GI50  > 100 µM (inactive)
12  c1ccc(C2N3CCCCC3[C@@H]3c4[nH]c5ccccc5c4CCN23)cc1 (stereo partly drawn)            GI50     28 µM (inactive)

* * *

# System: SN12C
# assay_procedure: NCI tumour cell line growth inhibition, 48 h
The source made the active and inactive calls. No stated cut-off is given here; in the data, active = GI50 up to about 1.1 µM and inactive = higher.
Classes used: 1 for active, -1 for inactive

>>> df
                                    molecule  qualitative_label
 0  COc1cccc(/C=N/C(/N=C/c2cccc(OC)c2O)c2cccc(OC)c2O)c1O                 -1
 1               O=C1CCCCC/C1=C\c1cccc(Cl)c1                 -1
 2  Cn1c(=O)c2[nH]c(/N=N/N3CCN(CCO)CC3)nc2n(C)c1=O                 -1
 3  N=C(CC(=O)NOC(=O)c1ccccc1)NOC(=O)c1ccccc1                 -1
 4     CC(=O)OCCn1cnc2nc(Nc3ccccc3)nc(Cl)c21                 -1
 5  Cc1cc2nnn(C3CCCO3)c2cc1C (centres undefined)                 -1
 6  Clc1cc(Cl)cc(C2SCc3nc4ccccc4n32)c1 (centres undefined)                 -1
 7  O=C(CCCN1CCC(C(O)c2ccc(F)cc2)CC1)c1ccc(F)cc1 (centres undefined)                 -1
 8  COc1cc(CNc2ccc3nc4n(c(=O)c3c2)CCCCC4)cc(OC)c1OC                 -1
 9  Nc1nc(SCc2ccccc2[N+](=O)[O-])c2[nH]cnc2n1                 -1
10  CC1(C)OC2OC(COC(=O)C(c3ccccc3)c3ccccc3)C3OC(C)(C)OC3C2O1 (centres undefined)                 -1
11  N#CCCN(CCCCN(CCC#N)C(=O)Nc1ccccc1)C(=O)Nc1ccccc1                 -1
12  CC(C)(C)OC(=O)N1CCC2(CC1)C(=O)NCN2c1ccccc1                 -1
13  COc1cc2c(cc1OC)C(=O)N1CCCC1C(=O)S2 (centres undefined)                 -1
14  COc1nc(NC2OC(COC(C)=O)C(OC(C)=O)C(OC(C)=O)C2OC(C)=O)c(-c2csc(N)n2)c(=O)n1C (centres undefined)                 -1
15  CC(=N/NC(=S)N1CCCCC1)/C(=N\NC(=S)N1CCCCC1)c1ccccc1                 -1
16  CC1(CO)OC(n2cnc3c(N)ncnc32)C(O)C1O (centres undefined)                 -1
17  O=C1NC(c2cccc3ccccc23)Nc2ccccc21 (centres undefined)                  1
18  C=COC(=O)N[C@H]1CCc2cc(OC)c(OC)c(OC)c2-c2ccc(SC)c(=O)cc21                  1
19                 Oc1ccc(-c2n[nH]c(S)n2)cc1                 -1
20  CC(C)(C)c1cc(/C=C2/NC(=O)NC2=O)cc(C(C)(C)C)c1O                 -1
21                        NCc1ccc(C(=O)O)cc1                 -1
22  O=[N+]([O-])C(/C(Cl)=C(/Cl)N1CCOCC1)=C1\NCCO1                 -1
23  CC1=NC(=O)CNN1C1=NNC2(C(=O)N1)c1ccccc1-c1ccccc12                 -1

* * *

# Test system: HT-29
# assay_procedure: NCI tumour cell line growth inhibition, 48 h
Calls of active or inactive are those of the source. No stated cut-off is given here; in the data, active = GI50 up to about 1.1 µM and inactive = higher.
Recorded measurements of GI50, one per entry
property_label: GI50

                                   compound               result
0  CN1CCN(C(=O)CCC(=O)Nc2cc3c(c4ccccc24)-c2ccc4ccccc4c2C3)CC1   1.72 µM (inactive)
1  COc1ccc(/C=C2\Sc3nnc(-c4ccccc4)n3N=C2c2cc(F)c(Cl)cc2Cl)cc1OC   12.1 µM (inactive)
2  Cc1ccc(S(=O)(=O)N(CC(O)c2ccccc2)c2ccccc2F)cc1 (centres undefined)   19.3 µM (inactive)
3             O=C(O)c1nc2cc(Cl)ccc2[nH]c1=O  > 100 µM (inactive)

* * *

# System: ACHN
# assay_procedure: NCI tumour cell line growth inhibition, 48 h
The source made the active and inactive calls. Rule as the data show it: active = GI50 up to about 1.1 µM and inactive = higher.
Overview of recorded GI50 for various compounds

compound	GI50
Oc1c2ccccc2c2c3c(cccc13)N=N2	6.64 µM (inactive)
COc1ccc(-n2c(C)nc3ccc(NC4OC(COC(C)=O)C(OC(C)=O)C(OC(C)=O)C4OC(C)=O)cc3c2=O)cc1 (stereo unspecified)	> 100 µM (inactive)
CC(C)(C)C(=O)N(C(=S)OCc1ccccn1)c1ccccc1	38.5 µM (inactive)
O=C(CCCN1CCC(C(O)c2ccc(F)cc2)CC1)c1ccc(F)cc1 (stereo unspecified)	50.6 µM (inactive)
OC1C2CCC3C2CC(C(O)(c2ccccc2)c2ccccc2)C13 (stereo unspecified)	33.7 µM (inactive)
CC(C)N/C(=N\C#N)NS(=O)(=O)c1cnccc1Nc1ccc(Cl)cc1	> 100 µM (inactive)
CCCCCCCCCCC(C)CCCCCCC(=O)OCC(COP(=O)([O-])OCC[N+](C)(C)C)OC(=O)CCCCCCC(C)CCCCCCCCCC (stereo unspecified)	> 100 µM (inactive)
N#C/C(=C\c1ccc2ccccc2c1)c1ccccc1	18.7 µM (inactive)
CCCCCCCCCc1c(O)c(O)c(CCCCCCCCC)c(CCCCCCCCC)c1CCCCCCCCC	> 100 µM (inactive)
FC(F)(F)c1ccc2c(c1)nc1n2C(c2c(Cl)cccc2Cl)SC1 (stereo unspecified)	15.9 µM (inactive)
CS/C(=N\C#N)S/C=C/C(=O)c1ccc(Cl)cc1	34.4 µM (inactive)
COc1nc(C(Cl)(Cl)Cl)c(Cl)c(OC)c1Cl	39.3 µM (inactive)
CC(C)(C)c1ccc(OCC(=O)O)c(Cl)c1	> 100 µM (inactive)
CC/C=C/C[C@H](O)[C@H]1C[C@H]2O[C@H](CC(=O)OC)C[C@H]2O1	> 100 µM (inactive)
N#Cc1c(N2CCN(c3ccc([N+](=O)[O-])cc3)CC2)[n+]([O-])c2ccc(-c3ccc([N+](=O)[O-])cc3)cc2[n+]1[O-]	> 49 µM (inactive)
COc1ccc(C2CC(c3c(O)ccc4ccccc34)=NN2c2ccc([N+](=O)[O-])cc2[N+](=O)[O-])cc1OC (stereo unspecified)	18.5 µM (inactive)
O=c1[nH]cnc2c(COCCCO)c[nH]c12	> 100 µM (inactive)
COC(=O)c1ccccc1C1CN=NC12Cc1c(C)cccc1C2=O (stereo unspecified)	> 100 µM (inactive)
O=C(N/C(=C\c1ccc(Oc2ccc(Cl)c(Cl)c2)cc1)c1nc2ccccc2[nH]1)c1ccccc1	19.7 µM (inactive)
CC1(CO)COS(=O)OC1 (stereo unspecified)	> 100 µM (inactive)
CC(=O)OCC1OC(n2c3c(c(-c4ccc(Cl)cc4)c(C#N)c2=S)CCCC3)C(OC(C)=O)C(OC(C)=O)C1OC(C)=O (stereo unspecified)	43.8 µM (inactive)
O=C1C=CC(=O)c2c1cc1ccccc1c2O	2.84 µM (inactive)
CN1C2CCC1C(C(O)c1ccccc1[N+](=O)[O-])C(=O)C2 (stereo unspecified)	> 100 µM (inactive)
CCOP(=O)(OCC)/C(C#N)=C\c1cccc2ccccc12	> 75.9 µM (inactive)
CC(=N/NC(=S)N1CCCCC1)/C(=N\NC(=S)N1CCCCC1)c1ccccc1	1.6 µM (inactive)
CN(c1ccc(C(=O)c2ccc(N(C)S(C)(=O)=O)cc2)cc1)S(C)(=O)=O	77.8 µM (inactive)
Cc1oc2c(Cl)cc(O)c(Cl)c2c2cccc1-2	40.6 µM (inactive)
COc1cc(CNc2ccc3nc4n(c(=O)c3c2)CCCCC4)cc(OC)c1OC	35.2 µM (inactive)
COc1cccc(/C=C2/S/C(=N/Nc3nc(C)c(C(C)=O)s3)NC2=O)c1O	22 µM (inactive)
CCOc1cc(C2SCC(=O)N2c2ccc3c(c2)Oc2c(Cl)c4c(c(Cl)c2=N3)Oc2cc(N3C(=O)CSC3c3ccc(O)c(OCC)c3)ccc2N=4)ccc1O (stereo unspecified)	26.6 µM (inactive)
Cc1cc(/N=C/c2c(CO)cnc(C)c2O)c(/N=C/c2c(CO)cnc(C)c2O)cc1C.[Zn+2]	> 100 µM (inactive)
